Where do these numbers come from? They come from PubChem BioAssay AID2765.

test system: MEF A1-2A-BIM cells, caspase 3/7 luminescence, 3 h; experiment: inducers of caspase signal in A1-dependent MEFs – cell-based, luminescence, retest, A1 inhibitor project, dose response (AID 2765)
Activity calls are given as the source filed them.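 How the source made its calls: active means half-maximal concentration for the rise in caspase light signal at or below ten times the top tested dose; inconclusive means flat fit between 30% and 70% activity, or unreliable curve fit; inactive means the rest.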
I would appreciate it if you answered using one of these outcomes: t for active, f for inactive

Query: Dear all, I need the recorded test outcome for CCc1ccc2nc(N(CCCN(C)C)C(=O)c3ccc(S(=O)(=O)N4CCc5ccccc5C4)cc3)sc2c1 , thank you.
Response: f

Query: Another: CCNC(=O)CN(c1ccc(Br)c(C)c1)S(C)(=O)=O
Response: f

Query: Another: S=C(NCCc1ccccc1)NC1CCCCCC1
Response: f

Query: Another: COC(=O)C(CO)Nc1ncnc2onc(-c3ccc(F)cc3)c12 (stereo unspecified)
Response: f

Query: Another: O=C(Nc1ccc(Br)cc1C(=O)O)c1ccc2c(c1)C(=O)N(Cc1ccccc1)C2=O
Response: f

Query: Another: CCn1c(C)[n+](CCOC(C)=O)c2cc(Cl)c(Cl)cc21
Response: f

Query: Another: CCCCn1c(=O)[nH]c(=O)c2c1nc(Cn1ncc(Cl)c(Cl)c1=O)n2CCC
Response: f

Query: Another: CCN(CC)CCN(C(=O)c1cc2c(ccc3ccccc32)oc1=O)c1nc2cc3c(cc2s1)OCCO3
Response: t

Query: Another: CN(CC(=O)Nc1ccc(F)cc1)C(=O)c1ccccc1OCc1ccc(F)cc1
Response: f

Query: Another: CC(C)CCNC(=O)c1cc(-c2ccncc2)nc2ccc(S(=O)(=O)N3CCOCC3)cc12
Response: f

Query: Another: CCc1cccc(CC)c1NC(=O)C1CSC2(C)CCC(=O)N12 (stereo unspecified)
Response: f

Query: Another: Cc1ccc(C(=O)NCC(=O)OC(C)C(=O)Nc2ccc(N(C)C)cc2)s1 (stereo unspecified)
Response: f

Query: Another: CCc1ccc(NC(=O)c2nc(S(=O)(=O)Cc3ccccc3)ncc2Cl)cc1
Response: f

Query: Another: Cc1cc(N2C(=O)C(O)=C(C(=O)c3cc4ccccc4o3)C2c2ccc(Br)cc2)no1 (stereo unspecified)
Response: f

Query: Another: C#CCn1ccc(O)c(Cc2ccccc2)c1=O
Response: f

Query: Another: COc1ccc(N/C(=N/c2nc(C)cc(C)n2)NC(=O)Nc2ccc(Cl)c(Cl)c2)c(OC)c1
Response: f
